Collected max activity values appear next to each entry.
Test: inhibitors of Clostridioides difficile proliferation – 4-point retest, confirmation (AID 1224921);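 note: plate controls were DMSO wells for no effect and levofloxacin 16 µg/mL wells for full effect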
Details: Clostridioides difficile clinical isolate growth, OD600, 24 h, stronger effect = lower value; at 30 µM unless noted
About 350 (25%) of roughly 1,400 compounds were called active. Inconclusive results (about 2%) are left out. Not all results are given here. Measured potencies and affinities stand elsewhere.

Input line: Please give measured max activity of the following entry: NC(=O)[C@H]1[C@@H]2C(=O)O[C@@H](c3ccccc3)[C@@H](c3ccccc3)N2[C@@H](c2ccccc2OCCO)[C@]12C(=O)Nc1ccc(C#CC3(O)CCCCCC3)cc12
Output line: 16.8% [at 8 µM] (inactive)

Input line: Please give measured max activity of the following entry: COc1ccc(C#Cc2ccc3c(c2)[C@]2(C(=O)N3)[C@H](C(N)=O)[C@H]3C(=O)O[C@H](c4ccccc4)[C@H](c4ccccc4)N3[C@@H]2c2ccc(O)cc2)cc1
Output line: 23.8% (inactive)

Input line: For the molecule CCCC#Cc1ccc2c(c1)O[C@H](CN(C)Cc1cccnc1)[C@@H](C)CN([C@@H](C)CO)S2(=O)=O , give its reported max activity.
Output line: 13.7% [at 8 µM] (inactive)

* * *

Test: inhibitors of Clostridioides difficile proliferation – 4-point retest, confirmation (AID 1224921);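 note: plate controls were DMSO wells for no effect and levofloxacin 16 µg/mL wells for full effect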
Conditions: Clostridioides difficile clinical isolate growth, OD600, 24 h, stronger effect = lower value; at 30 µM unless noted
About 350 (25%) of roughly 1,400 compounds were called active. Roughly 2% stayed inconclusive and do not appear here. Not all results are given here. Measured potencies and affinities stand elsewhere.
READOUT KIND: max activity

In the examples that follow, each entry is paired with its recorded max activity.
{"columns": ["INPUT SMILES", "max activity"],
 "data": [
  ["CO[C@H]1CN(C)C(=O)c2cc(NC(=O)c3ccccc3)ccc2OC[C@@H](C)N(C)C[C@@H]1C", "-8.25% [at 8 µM] (inactive)"],
  ["C[C@H](CO)N1C[C@H](C)[C@@H](CN(C)Cc2cccnc2)Oc2cc(C3=CCCCC3)ccc2S1(=O)=O", "29% (inactive)"]
]}

Input line: Output measured max activity for this item: CC(C)CC#Cc1ccc2c(c1)O[C@@H](CN(C)CC1CCOCC1)[C@H](C)CN([C@@H](C)CO)S2(=O)=O
Output line: 17.9% (inactive)

Input line: Item CCS(=O)(=O)Nc1ccc2c(c1)C(=O)N(C)C[C@@H](OC)[C@@H](C)CN(CC1CCCC1)[C@@H](C)CO2 : provide max activity
Output line: -10.9% [at 0.5 µM] (inactive)

* * *

Assay: inhibitors of Clostridioides difficile proliferation – 4-point retest, confirmation (AID 1224921);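 note: plate controls were DMSO wells for no effect and levofloxacin 16 µg/mL wells for full effect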
Settings: Clostridioides difficile clinical isolate growth, OD600, 24 h, stronger effect = lower value; at 30 µM unless noted
The whole screen tested about 1,400 compounds, of which about 350 (25%) were called active. Another 2% or so got no clear call; they are omitted. These entries were drawn from the full list. Results with a measured potency or affinity are listed apart.
Collected max activity values appear next to each entry.

{"columns": ["INPUT SMILES", "max activity"],
 "data": [
  ["C[C@@H]1CN([C@@H](C)CO)C(=O)Cc2cc(NC(=O)C3CC3)ccc2O[C@@H]1CN(C)Cc1ccc(-c2ccccc2)cc1", "49.5% (inactive)"],
  ["CC(C)C#Cc1ccc2c(c1)O[C@H](CN(C)Cc1ccncc1)[C@H](C)CN([C@H](C)CO)S2(=O)=O", "8.71% (inactive)"],
  ["C[C@@H]1CN([C@@H](C)CO)C(=O)c2cccc(NS(=O)(=O)c3ccc(Cl)cc3)c2O[C@@H]1CN(C)Cc1ccc(C(F)(F)F)cc1", "20.4% [at 1.95 µM] (inactive)"],
  ["CCCC(=O)Nc1ccc2c(c1)OC[C@H](C)N(Cc1ccncc1)C[C@@H](C)[C@H](OC)CN(C)C2=O", "14.3% (inactive)"],
  ["CNC[C@@H]1Oc2cc(C#CCOC)ccc2S(=O)(=O)N([C@@H](C)CO)C[C@H]1C", "-11.1% [at 8 µM] (inactive)"],
  ["COCC(=O)Nc1ccc2c(c1)C(=O)N(C)C[C@@H](OC)[C@H](C)CN(C(=O)CN1CCOCC1)[C@H](C)CO2", "-15.1% [at 2.1 µM] (inactive)"],
  ["C[C@H](NC(=O)C[C@@H]1CC[C@@H]2[C@H](COC[C@@H](O)CN2C(=O)Nc2cc(Cl)cc(Cl)c2)O1)c1ccccc1", "14% [at 1.95 µM] (inactive)"],
  ["CCCN1C[C@H](C)[C@@H](OC)CN(C)C(=O)c2cc(NC(=O)CC)ccc2OC[C@H]1C", "-10.4% [at 0.5 µM] (inactive)"]
]}

Input line: Determine its reported max activity: C[C@H](CO)N1C[C@H](C)[C@@H](CN(C)Cc2ccccc2)Oc2ccc(N(C)C)cc2CC1=O
Output line: 18.1% (inactive)

Input line: Let me know recorded max activity for COc1ccc(NC(=O)Nc2cccc3c2O[C@@H](CN(C)C(=O)NC2CCCCC2)[C@H](C)CN([C@H](C)CO)C3=O)cc1 , thanks.
Output line: 7.41% (inactive)

Input line: Quote max activity reported for C[C@@H]1CN([C@@H](C)CO)C(=O)Cc2cc(NC(=O)c3ccncc3)ccc2O[C@H]1CN(C)Cc1ccc(Cl)c(Cl)c1 please.
Output line: 36.8% [at 8 µM] (inactive)

Input line: Quickly give me recorded max activity for C[C@@H]1CN([C@H](C)CO)C(=O)c2c(c3ccccc3n2C)-c2ccccc2CO[C@@H]1CN(C)S(=O)(=O)c1cccc(F)c1
Output line: 42% [at 35 µM] (inactive)

Input line: Specify max activity for CCCN1C[C@@H](C)[C@@H](OC)CN(C)C(=O)c2cc(NC(=O)c3cccc(OC)c3)ccc2OC[C@H]1C and stop.
Output line: -8.56% [at 0.5 µM] (inactive)

Input line: Give me measured max activity, please, for this compound: CCCC(=O)Nc1ccc2c(c1)OC[C@@H](C)N(CCc1ccccc1)C[C@H](C)[C@H](OC)CN(C)C2=O
Output line: -4.85% [at 1.95 µM] (inactive)

Input line: For C[C@H](NC(=O)N(C)C[C@@H]1OCc2ccccc2-c2c(n(C)c3ccccc23)C(=O)N([C@@H](C)CO)C[C@H]1C)c1ccccc1 , write its max activity.
Output line: 26.5% [at 8 µM] (inactive)

Input line: Annotate the compound CO[C@@H]1CN(C)C(=O)c2ccc(NC(=O)c3ccc(F)cc3)cc2OC[C@H](C)N(C(=O)CN(C)C)C[C@@H]1C with its measured max activity.
Output line: -20.6% [at 1.95 µM] (inactive)

Input line: Give the reported value of max activity for this record: Cc1ccc(S(=O)(=O)N2C[C@@H](O)COC[C@@H]3O[C@@H](CC(=O)NCC4CCCCC4)CC[C@H]32)cc1
Output line: 22.7% [at 8 µM] (inactive)

Input line: For O=C(C[C@@H]1C=C[C@@H](NC(=O)c2cccc(F)c2)[C@H](CO)O1)Nc1nccs1 , write its max activity.
Output line: 13.9% (inactive)

Input line: Write down max activity measured for item CCCN1C[C@H](C)[C@H](OC)CN(C)C(=O)c2ccc(NC(=O)c3ccc(F)cc3)cc2OC[C@@H]1C
Output line: -9.18% (inactive)

Input line: For the compound CC(C)c1cn(CC[C@@H]2CC[C@H](NS(=O)(=O)c3ccc(F)cc3)[C@H](CO)O2)nn1 , give its reported max activity.
Output line: -12.5% (inactive)

Input line: Output max activity of COCC(=O)Nc1ccc2c(c1)OC[C@H](C)N(Cc1cncnc1)C[C@@H](C)[C@@H](OC)CN(C)C2=O
Output line: -11.6% (inactive)

Input line: Return the recorded max activity value; entry: Cc1ccc(S(=O)(=O)N2C[C@H](O)COC[C@H]3O[C@H](CC(=O)NCc4ccc(Cl)c(Cl)c4)CC[C@@H]32)cc1
Output line: 26.4% [at 8 µM] (inactive)

Input line: Give reported max activity value for CCC(=O)N1C[C@H](C)[C@H](OC)CN(C)C(=O)c2ccc(NC(=O)Nc3ccc(Cl)cc3)cc2OC[C@H]1C
Output line: 20% (inactive)

Input line: Supply recorded max activity for COc1ccc(S(=O)(=O)N2C[C@@H](O)COC[C@H]3O[C@H](CC(=O)NCc4ccc(Cl)c(Cl)c4)CC[C@@H]32)cc1 here.
Output line: 33.9% [at 0.5 µM] (inactive)
